Target: T1, SUDV GP on rVSV particles (Sudan virus (SUDV), UniProt Q66814 33-676)
T1 sequence: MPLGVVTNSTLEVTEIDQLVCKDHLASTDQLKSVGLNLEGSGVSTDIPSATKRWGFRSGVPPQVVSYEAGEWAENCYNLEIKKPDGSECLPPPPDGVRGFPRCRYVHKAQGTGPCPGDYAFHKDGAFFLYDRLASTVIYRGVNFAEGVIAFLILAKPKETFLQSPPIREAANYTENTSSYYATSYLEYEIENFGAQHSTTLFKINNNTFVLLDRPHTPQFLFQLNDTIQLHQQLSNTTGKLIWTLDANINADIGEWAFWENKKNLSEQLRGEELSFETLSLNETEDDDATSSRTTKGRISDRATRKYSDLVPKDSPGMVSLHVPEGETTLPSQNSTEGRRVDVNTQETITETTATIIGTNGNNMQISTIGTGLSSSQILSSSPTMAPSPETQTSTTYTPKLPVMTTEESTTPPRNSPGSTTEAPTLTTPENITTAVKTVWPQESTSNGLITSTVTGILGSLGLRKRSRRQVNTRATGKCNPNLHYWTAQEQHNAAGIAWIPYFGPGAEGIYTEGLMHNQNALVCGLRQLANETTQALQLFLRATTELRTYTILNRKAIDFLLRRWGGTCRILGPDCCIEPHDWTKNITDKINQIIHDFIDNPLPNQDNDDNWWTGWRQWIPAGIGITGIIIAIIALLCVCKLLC
Test: cell-based or functional assay
Endpoint label: IC50 (nM), neutralization of rVSV-GP
# number only, unit nM dropped from output

| Binder | Endpoint label | Experimental value |
| --- | --- | --- |
| PE-87 H108A (antibody, V domains shown) VH: QVQLVQSGVTLVQPGGSLRVSCAASGFTFSSYAMSWVRQAPGKGLEWVSAISGLGGSTYYADSVKGRFTISRDNSKNTLYLQMNSLRAEDTAVYYCAKDHRVWAAGYAFDYWGQGALVTVSS VL: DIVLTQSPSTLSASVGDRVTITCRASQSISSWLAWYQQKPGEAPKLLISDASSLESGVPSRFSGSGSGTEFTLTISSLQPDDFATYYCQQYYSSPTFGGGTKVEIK | IC50 (nM), neutralization of rVSV-GP | 2.1 |

Exam item: Consider the binder shown here: PE-87 R101A (antibody, V domains shown) VH: QVQLVQSGVTLVQPGGSLRVSCAASGFTFSSYAMSWVRQAPGKGLEWVSAISGLGGSTYYADSVKGRFTISRDNSKNTLYLQMNSLRAEDTAVYYCAKDHAVWAAGYHFDYWGQGALVTVSS VL: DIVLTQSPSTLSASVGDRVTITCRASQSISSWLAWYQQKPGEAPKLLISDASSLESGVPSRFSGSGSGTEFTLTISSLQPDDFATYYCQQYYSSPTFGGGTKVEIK What is its recorded IC50 (nM), neutralization of rVSV-GP?
Marked response: 1.5

Source: patent US20180244758A1
